tested on: HCV 1b_Huh-Luc/Neo-ET cell line persistently expressing a bicistronic genotype 1b replicon in Huh 7 cells; experiment: HCV replicon assay (luciferase readout); type: cell-based; conditions: Hepatitis C virus, Huh-7, 72 h, read-out: Inhibition of HCV genotype 1b
measure: EC50

query: Look at this compound and give its reported EC50. `COC(=O)N[C@@H](C(=O)N1CCC[C@H]1c1ncc(-c2ccc(C#Cc3ccc(-c4cnc([C@@H]5CCCN5C(=O)[C@@H](c5ccccc5)N(C)C)[nH]4)cc3)cc2)[nH]1)c1ccccc1`
result: < 1 nM

query: Look at this compound and give its reported EC50. `COC(=O)N[C@@H](C(=O)N1CCC[C@H]1c1ncc(-c2ccc(C#Cc3cnc([C@@H]4CCCN4C(=O)[C@@H](c4ccccc4)N(C)C)[nH]3)cc2)[nH]1)c1ccccc1`
result: < 1 nM

query: Look at this compound and give its reported EC50. `COC(=O)N[C@H](C(=O)N1CCC[C@H]1c1ncc(-c2ccc(C#Cc3ccc(-c4cnc([C@@H]5CCCN5C(=O)[C@@H](Nc5cccnc5)C(C)C)[nH]4)cc3)cc2)[nH]1)C(C)C`
result: < 1 nM

query: Look at this compound and give its reported EC50. `COC(=O)N[C@H](C(=O)N1CCC[C@H]1c1ncc(-c2ccc(C#Cc3ccc4nc([C@@H]5CCCN5C(=O)[C@@H](NC(=O)OC)[C@@H](C)O)[nH]c4c3)cc2)[nH]1)[C@@H](C)O`
result: < 1 nM

query: Look at this compound and give its reported EC50. `COC(=O)N[C@H](C(=O)N1CSC[C@H]1c1ncc(-c2ccc(C#Cc3ccc4nc([C@@H]5CCCN5C(=O)[C@@H](NC(=O)OC)C(C)C)[nH]c4c3)cc2)[nH]1)C(C)C`
result: < 1 nM

query: Look at this compound and give its reported EC50. `O=C(N[C@@H](C(=O)N1CCC[C@H]1c1ncc(C#Cc2ccc(-c3cnc([C@@H]4CCCN4C(=O)[C@H](NC(=O)N4CCOCC4)c4ccccc4)[nH]3)cc2)[nH]1)c1ccccc1)N1CCOCC1`
result: 1 to 9.9 nM
